# Test system: MCF7 breast
# assay_details: NCI tumour cell line growth inhibition, 48 h; in the data active = GI50 below about 0.43 µM; inactive = the rest
A correct response names exactly one class from YES = active, NO = inactive

Some solved cases for reference:
# compound, group_label
rows = [
    ("CCOC(=O)c1c(C)n(Cc2ccc(Cl)cc2Cl)c2c1cc(O)c1[nH]c(Cc3ccccc3)nc12", "NO"),
    ("Cc1nc2sc(C(=O)Nc3cccc4c3OCCO4)c(N)c2cc1C(C)O (configuration not stated)", "NO"),
    ("CC(=O)OC1C(C)OC(Oc2c(-c3ccc(O)cc3)oc3cc(O)cc(O)c3c2=O)C(O)C1OC(C)=O (configuration not stated)", "NO"),
]

(Q) # lookup: test call for `Cc1nc2ccccc2c(/C=C/c2ccc(F)cc2)c1C(=O)/C=C/c1ccccc1`
(A) NO

(Q) Same again, this time with `CCc1n(Cc2ccc3ccccc3c2)cc[n+]1Cc1ccc2ccccc2c1`
(A) YES

(Q) How about `CC(C)(C)c1ccc(OCCCCCCCN2CCNCC2)cc1` ?
(A) NO

(Q) Similarly, `C=CC(=O)N1CCN(c2nc(OC[C@@H]3CCCN3C)nc3c(F)c(-c4nc(N)cc(C)c4C(F)(F)F)c(Cl)cc23)[C@@H](C)C1` ?
(A) NO

(Q) And the next one, `CC(C)C[C@H](NC(=O)[C@@H](N)Cc1cccc2ccccc12)B(O)O` ?
(A) YES

Data provenance is PubChem BioAssay (NCI).
